Where do the numbers come from? From paper PMC9343874.

# PROTOCOL_DESCRIPTION: Stability of analytes in rat plasma QC samples under storage conditions
# Type: physicochemical
# MEASUREMENT_CONDITIONS: rat plasma, long-term; low QC level (4.99–5.00 ng/ml), n = 6

# COMPOUND, −80°C for 30 days, RE
rows = [
    ("C[C@]12CC[C@H](O)C[C@H]1CC[C@@H]1[C@@H]2[C@H](O)C(=O)[C@]2(C)[C@@H](c3ccc(=O)oc3)CC[C@]12O [ABG, arenobufagin]", "7.1%"),
    ("C[C@]12CC[C@H](O)C[C@H]1CC[C@@H]1[C@@H]2CC[C@]2(C)[C@@H](c3ccc(=O)oc3)[C@@H](O)[C@H]3O[C@]132 [DCG, desacetylcinobufagin]", "1.9%"),
    ("C[C@]12CC[C@H](O)C[C@H]1CC[C@@H]1[C@@H]2C(=O)[C@@H](O)[C@]2(C)[C@@H](c3ccc(=O)oc3)CC[C@]12O [PBG, pseudobufarenogin]", "8.3%"),
    ("C[C@]12CC[C@H](O)C[C@H]1CC[C@@H]1[C@@H]2CC[C@]2(C)[C@@H](c3ccc(=O)oc3)C[C@H]3O[C@]132 [RBG, resibufogenin]", "−1.3%"),
    ("C[C@]12CC[C@H](O)C[C@H]1CC[C@@H]1[C@@H]2[C@H](O)C[C@]2(C)[C@@H](c3ccc(=O)oc3)CC[C@]12O [GBL, gamabufotalin]", "8.3%"),
]

----------
# PROTOCOL_DESCRIPTION: Pharmacokinetic study in rats after oral administration of cinobufacini capsule (UPLC-MS/MS of plasma)
# Format: in vivo, rat
# MEASUREMENT_CONDITIONS: male, Sprague-Dawley, in vivo; rat plasma, oral cinobufacini capsule 1.8 g/kg (medium), mean ± SD, n = 6

# SMILES_ENTRY, AUC(0-inf) [ng·h/mL]
data = [
    ("C[C@]12CC[C@H](O)C[C@H]1CC[C@@H]1[C@@H]2CC[C@]2(C)[C@@H](c3ccc(=O)oc3)[C@@H](O)[C@H]3O[C@]132", 112),
    ("C[C@]12CC[C@H](O)C[C@H]1CC[C@@H]1[C@@H]2[C@H](O)C[C@]2(C)[C@@H](c3ccc(=O)oc3)CC[C@]12O", 23.4),
    ("C[C@]12CC[C@H]3[C@@H](CC[C@]4(O)C[C@@H](O)CC[C@]34C=O)[C@@]1(O)CC[C@@H]2c1ccc(=O)oc1", 13.8),
    ("C[C@]12CC[C@H](O)C[C@H]1CC[C@@H]1[C@@H]2CC[C@]2(C)[C@@H](c3ccc(=O)oc3)CC[C@]12O", 317),
    ("C[C@]12CC[C@H](O)C[C@@]1(O)CC[C@@H]1[C@@H]2CC[C@]2(C)[C@@H](c3ccc(=O)oc3)[C@@H](O)[C@H]3O[C@]132", 35.7),
]

----------
# PROTOCOL_DESCRIPTION: Pharmacokinetic study in rats after oral administration of cinobufacini capsule (UPLC-MS/MS of plasma)
# Format: in vivo, rat
# MEASUREMENT_CONDITIONS: male, Sprague-Dawley, in vivo; rat plasma, oral cinobufacini capsule 3.6 g/kg (high), mean ± SD, n = 6; read-out: CLz/F (converted)
# Excerpt: Male Sprague–Dawley rats (weighing 200–220 g) of SPF grade were offered by Sippr/BK laboratory Animal, Corp., Ltd. (Shanghai, China) and fed in the Laboratory Animal Center of the Shanghai University of Traditional Chinese Medicine. […] An Agilent 1290 Infinity series UPLC system was combined with an Agilent 6460 series triple quadrupole mass spectrometer (Agilent Technologies, Santa Clara, CA, United States) to quantify all 13 analytes in an ESI-positive ionization mode. […]
Parameter CL/F: see the listing below.

# MOLECULE, OUTPUT_UNIT, CL/F
records = [
    ("C[C@]12CC[C@H](O)C[C@H]1CC[C@@H]1[C@@H]2C(=O)[C@@H](O)[C@]2(C)[C@@H](c3ccc(=O)oc3)CC[C@]12O [PBG, pseudobufarenogin]", "mL/min/kg", 36.7),
    ("C[C@]12CC[C@H](O)C[C@@]1(O)CC[C@@H]1[C@@H]2CC[C@]2(C)[C@@H](c3ccc(=O)oc3)[C@@H](O)[C@H]3O[C@]132 [DCT, desacetylcinobufotalin]", "mL/min/kg", 42.5),
    ("C[C@]12CC[C@H](O)C[C@@]1(O)CC[C@@H]1[C@@H]2CC[C@]2(C)[C@@H](c3ccc(=O)oc3)CC[C@]12O [TCG, telocinobufagin]", "mL/min/kg", 60.3),
    ("C[C@]12CC[C@H](O)C[C@H]1CC[C@@H]1[C@@H]2[C@H](O)C[C@]2(C)[C@@H](c3ccc(=O)oc3)CC[C@]12O [GBL, gamabufotalin]", "mL/min/kg", 153),
    ("C[C@]12CC[C@H]3[C@@H](CC[C@]4(O)C[C@@H](O)CC[C@]34C=O)[C@@]1(O)CC[C@@H]2c1ccc(=O)oc1 [HBG, hellebrigenin]", "mL/min/kg", 118),
]
